Hey, just so you know, these numbers are from paper PMC12455397.

Listing of entries alongside the reported TBK1 FC.
test system: differentiated THP1 macrophages (WT); details: Table S3; THP-1, 12 h
Where a name gives a salt, the structure may show the parent alone.

{"compound": "Cc1cc2c(cc1C(CC(=O)O)c1ccc3ccc(OCC(=O)NC4CCCCCC4)cc3c1)OCCO2 (stereo not drawn) [Compound 28]", "TBK1 FC": "1,01 fold"}
{"compound": "C[S+]([O-])CCCCN=C=S (stereo not drawn) [SFN, sulforaphane]", "TBK1 FC": "0,95 fold"}
{"compound": "COC(=O)/C=C/C(=O)OC [DMF, dimethyl fumarate]", "TBK1 FC": "1,19 fold"}
{"compound": "Cc1cc2c(cc1C(CC(=O)O)c1ccc3ccc(OCC(=O)NC4CCCCCC4)cc3c1)OCO2 (stereo not drawn) [Compound 24]", "TBK1 FC": "0,86 fold"}
{"compound": "COc1cc([C@@H](CC(=O)O)c2ccc(C)c(CN3C[C@@H](C)Oc4ccccc4S3(=O)=O)c2)cc2nnn(C)c12 [KI-696]", "TBK1 FC": "1,56 fold"}
{"compound": "COC(=O)[C@]12CCC(C)(C)C[C@H]1[C@H]1C(=O)C=C3[C@@]4(C)C=C(C#N)C(=O)C(C)(C)[C@@H]4CC[C@@]3(C)[C@]1(C)CC2 [CDDO-Me, bardoxolone methyl]", "TBK1 FC": "1,06 fold"}
